quantity measured: MIC (µM)
A number alone suffices; assume µM.

Query :: // lookup MIC | system=Staphylococcus aureus | key= CC[C@H](C)[C@H](NC(=O)CNC(=O)[C@H](CO)NC(=O)[C@H](CC(C)C)NC(=O)[C@@H](NC(=O)CN)[C@@H](C)CC)C(=O)N[C@@H](CC(C)C)C(=O)NCC(=O)N[C@@H](CCSC)C(=O)NCC(=O)N[C@@H](CCCCN)C(=O)N[C@@H](CCCCN)C(=O)N[C@@H](CC(C)C)C(=O)N[C@H](C(=O)N[C@H]1CSSC[C@@H](C(=O)O)NC(=O)[C@H](CC(C)C)NC(=O)CNC(=O)[C@H](CO)NC(=O)[C@H](CC(C)C)NC(=O)CNC1=O)C(C)C
Result :: 50

Query :: # query: MIC | item CC(C)C[C@H](NC(=O)[C@H](CCCCN)NC(=O)[C@H](CCCN=C(N)N)NC(=O)[C@H](Cc1ccccc1)NC(=O)[C@H](Cc1ccccc1)NC(=O)[C@H](CCCCN)NC(=O)[C@H](CCCCN)NC(=O)[C@H](Cc1ccccc1)NC(=O)[C@H](CCCN=C(N)N)NC(=O)[C@H](CCCCN)NC(=O)[C@@H](N)C(C)C)C(=O)N[C@@H](CCCCN)C(=O)N[C@@H](CCCCN)C(=O)N[C@@H](CO)C(=O)N[C@H](C(=O)N[C@@H](CCCCN)C(=O)N[C@@H](CCCCN)C(N)=O)C(C)C | system: Staphylococcus aureus
Result :: 58.3

====

# System: Aspergillus fumigatus
quantity measured: MIC (µM)
Kindly provide the numeric value in µM only, without the unit symbol.

Query :: Reported MIC for CC[C@H](C)[C@H](NC(=O)[C@H](Cc1cnc[nH]1)NC(=O)[C@@H](NC(=O)[C@@H](NC(=O)[C@H](CCCCN)NC(=O)[C@H](CCCN=C(N)N)NC(=O)[C@@H](NC(=O)[C@@H](NC(=O)[C@@H](N)CCCN=C(N)N)[C@@H](C)CC)[C@@H](C)CC)[C@@H](C)CC)[C@@H](C)CC)C(=O)N[C@H](C(=O)N[C@@H](CCCCN)C(N)=O)[C@@H](C)CC : what is it?
Result :: 28.5

====

# Tested on: Pseudomonas aeruginosa ATCC 9027
# assay details: ≥ marks a high value that may be exact or a test limit, other limits are often not marked, values filed in µg/mL are converted to µM
So I've got a bunch of compounds here, and I need their MIC values.
Response body: numeric value in µM, unit text excluded.

Query :: Param item = CC(C)C[C@H](NC(=O)[C@H](CC(C)C)NC(=O)[C@H](CCCCN)NC(=O)[C@H](CC(C)C)NC(=O)[C@H](CC(C)C)NC(=O)[C@H](CC(C)C)NC(=O)[C@H](CCCCN)NC(=O)[C@H](CC(C)C)NC(=O)[C@H](CC(C)C)NC(=O)[C@H](CC(C)C)NC(=O)[C@@H](N)CCCCN)C(=O)N[C@@H](CCCCN)C(N)=O [KLLLKLLLKLLK] ; retrieve measured MIC.
Result :: 8.7

Query :: What measured MIC goes with CC[C@H](C)[C@H](NC(=O)[C@H](CCCCN)NC(=O)[C@H](CCCCN)NC(=O)[C@H](C)NC(=O)[C@@H](NC(=O)[C@H](C)NC(=O)[C@H](CC(C)C)NC(=O)[C@H](CC(C)C)NC(=O)[C@H](C)NC(=O)[C@H](CCCCN)NC(=O)[C@H](C)NC(=O)[C@H](CC(N)=O)NC(=O)[C@@H](N)CC(C)C)C(C)C)C(=O)N[C@@H](CC(C)C)C(N)=O [LNAKALLAVAKKIL] ?
Result :: 32
